- System: IGROV1 ovarian
- ASSAY EXPLANATION: NCI-60 one-dose screen, 48 h
- RUN PARAMETERS: 10 µM unless noted
Compounds without any hit were thinned out: in the full panel of roughly 83,000, 20% have a hit. Activity calls are given as the source filed them. Rule for the calls: active = growth percent below 10; inactive = the rest.
Hello, when you answer, please use one of the following outcomes: active, inactive

Example cases with answers are listed next.
COMPOUND	DISCRETE LABEL
Cc1ncc(C(=O)Nc2ccc(CN3CCN(C)CC3)c(C(F)(F)F)c2)cc1C#Cc1cnc(N)c2ccc(C#N)cc12	active
CCn1cc(C(=O)O)c(=O)c2cc(F)c(N3CCN(CC(=O)Nc4ccccc4)C(C)C3)c(F)c21 (centres undefined)	inactive
COc1ccc(/C=C2\CN(C(=O)C(Cl)Cl)C/C(=C\c3ccc(OC)c(OC)c3)C2=O)cc1OC	active

Please find the next compound below.
Exam item: Kindly provide the recorded test outcome for the following compound: CCOc1ccc(/C=C/C(=O)c2cccc(OCCCOc3cccc(C(=O)/C=C/c4ccc(OCC)cc4)c3)c2)cc1
Marked response: inactive

----------
- Test system: SN12C renal
- ASSAY EXPLANATION: NCI-60 one-dose screen, 48 h
- RUN PARAMETERS: 10 µM unless noted
The panel holds about 83,000 compounds, 20% with a hit somewhere; the sample as a whole holds those more often. Calls of active or inactive are those of the source. How the source made its calls: active means growth percent below 10; inactive means the rest.
Pick one and only one: true for active, false for inactive

Completed entries (count: 5):
MOLECULE	DISCRETE LABEL
OC1(c2ccccc2)c2ccccc2N(c2ccccc2)c2ccc(Cl)cc21 (stereo not drawn)	true
CN1C(=O)/C(=C/c2ccc(C(=O)Nc3ncc(Cc4cccc(C(F)(F)F)c4)s3)cc2)SC1=S	false
Cc1ccc(S(=O)(=O)OC[C@]23CCC(C)(C)C[C@H]2C2=CC[C@@H]4[C@@]5(C)CCCNC(C)(C)[C@@H]5CC[C@@]4(C)[C@]2(C)CC3)cc1	false
C=C1C(=O)O[C@H]2[C@H]1CC/C(CNC(=O)Cc1c[nH]c3ccccc13)=C\CC[C@@]1(C)O[C@@H]21	false
Clc1cccc(C2Cc3cnccc3-c3[nH]c4ccncc4c32)c1 (stereo not drawn)	false

Exam item: // return assay outcome for O=C(/C=C/c1ccccc1Cl)c1cccc(OCCCCOc2cccc(C(=O)/C=C/c3ccccc3Cl)c2)c1
Marked response: false

Exam item: What is the recorded call for this molecule in the test? CCn1cc(Cc2cc(C(=O)Nc3cc4cc(OC)c(OC)cc4c(C)n3)ccc2Cl)cn1
Marked response: false

Exam item: I would be grateful if you could indicate the recorded call for COc1ccc(C2CC(n3ccnc3)c3cc(OC)c(OC)c(OC)c32)cc1O (stereo not drawn) .
Marked response: false

Exam item: Give the logged outcome of this assay for the following molecule: CCOc1ncc([N+](=O)[O-])c(OCC)n1
Marked response: false

Exam item: Given COC(=O)c1c2c(c[n+]([O-])c1C)C(=O)C=C(NCc1ccccc1)C2=O , state the outcome it received in this test.
Marked response: true

Exam item: Lab log entry: CN(C)CCCn1c2c(c3cnccc3c1=O)C(=O)c1ccccc1-2 — outcome as called in the assay?
Marked response: true

Exam item: Short answer needed: outcome of this test for O=C(CN1C(=O)S/C(=C\C(Cl)=C\c2ccccc2)C1=O)NC1CCS(=O)(=O)C1 (stereo not drawn) ?
Marked response: false

Exam item: Per the assay record, what outcome was assigned to Cn1c(=O)c2[nH]c(SC/C(=N/O)c3ccc(Br)cc3)nc2n(C)c1=O ?
Marked response: false

Exam item: // return assay outcome for CC1=C(Cl)C(=O)c2cc(C)ccc2C1=O
Marked response: false

Exam item: I'd appreciate the recorded outcome for CCN1C2CCC1/C(=C\c1ccccc1)C(=O)/C2=C/c1ccccc1 from this test.
Marked response: false

Exam item: For COc1ccc2c(c1)CC[C@@H]1[C@@H]2CC[C@]2(C)C3C(=CC(COC(C)=O)C4C(=O)N(c5ccc(Cl)cc5)C(=O)C43)C[C@@H]12 (stereo partly drawn) , what call appears in the results of this test?
Marked response: false

Exam item: I would be grateful if you could indicate the recorded call for c1ccc(-c2nc3ccccc3[nH]2)c(OCCCCCOc2ccccc2-c2nc3ccccc3[nH]2)c1 .
Marked response: false

Exam item: Hi team, can someone confirm the assay call for CC1(C)CC[C@]23CC[C@]4(C)[C@H](CC[C@@H]5[C@@]6(C)C/C(=C/O)C(=O)C(C)(C)[C@@H]6CC[C@]54C)[C@H]2[C@H]1OC3 ?
Marked response: false

Exam item: Test call, this molecule: NS(=O)(=O)c1ccc(C(=O)N=Nc2c(O)[nH]c3ccc(Cl)cc23)cc1
Marked response: false

Exam item: Assay result, entry C=C(C)[C@@H]1CC[C@]2(C(=O)Nc3ccccn3)CC[C@]3(C)[C@H](CC[C@@H]4[C@@]5(C)CCCNC(C)(C)[C@@H]5CC[C@]43C)[C@@H]12 — outcome?
Marked response: false

Exam item: GET /call?item= C#COc1cccc(Nc2ncnc3cc(NC(=O)[C@H](C)Cl)ccc23)c1 returns the recorded outcome of this test.
Marked response: false

Exam item: Check the results log: what was the call for Cc1ccc(-c2nc(SCC(=O)N3CCN(c4cc5c(cc4F)c(=O)c(C(=O)O)cn5C4CC4)CC3)nc(Cl)c2C#N)cc1 ?
Marked response: false

Exam item: Record lookup: outcome of this test for O=C1/C(=C/c2ccccn2)SC(=S)N1N1CCOCC1 ?
Marked response: false

Exam item: Assay outcome for CSc1ccc(N2C(=N)C(=S)N(c3ccc(C)cc3)C2=O)cc1 : what was it?
Marked response: false

Exam item: Record request — test call for O=C(NNc1nc2cc(F)ccc2n2c(CN3CCOCC3)ccc12)c1ccccc1
Marked response: false

Exam item: What did the test return for O=C(O)CC(C(=O)O)/C(=C\c1ccccc1)c1ccccc1 (stereo not drawn) ?
Marked response: false

Exam item: Identify the outcome logged in this assay for the molecule shown: CN(C)C1CN(C(=O)c2cc(-c3ccc4ncnc(N5CCc6cc(F)c(Cl)cc65)c4c3)cnc2N)C1
Marked response: false

Exam item: How was CC(=O)c1sc(-c2ccc(F)cc2)cc1O classified in this test?
Marked response: false

Exam item: GET /call?item= CC(O)Cc1c[nH]c(=O)[nH]c1=O (stereo not drawn) returns the recorded outcome of this test.
Marked response: false

Exam item: # outcome recorded in this test, key = NS(=O)(=O)c1ccc(C(=O)NN2C(=O)c3ccccc3C2=O)cc1
Marked response: false

Exam item: # lookup: test call for COc1cc([C@@H](CCO)C[C@H](C)c2ccc3ccccc3c2)cc(OC)c1OC
Marked response: false

Exam item: Recorded test outcome, item FC(F)(F)c1[nH]ncc1-c1nc2ccc3[nH]ncc3c2c2c1CCCC2
Marked response: false

Where do these numbers come from? They come from PubChem BioAssay (NCI).
